# SUBJECT OF TEST: EGFR (Homo sapiens (Human), UniProt P00533)
# Sequence (P00533 25-1210): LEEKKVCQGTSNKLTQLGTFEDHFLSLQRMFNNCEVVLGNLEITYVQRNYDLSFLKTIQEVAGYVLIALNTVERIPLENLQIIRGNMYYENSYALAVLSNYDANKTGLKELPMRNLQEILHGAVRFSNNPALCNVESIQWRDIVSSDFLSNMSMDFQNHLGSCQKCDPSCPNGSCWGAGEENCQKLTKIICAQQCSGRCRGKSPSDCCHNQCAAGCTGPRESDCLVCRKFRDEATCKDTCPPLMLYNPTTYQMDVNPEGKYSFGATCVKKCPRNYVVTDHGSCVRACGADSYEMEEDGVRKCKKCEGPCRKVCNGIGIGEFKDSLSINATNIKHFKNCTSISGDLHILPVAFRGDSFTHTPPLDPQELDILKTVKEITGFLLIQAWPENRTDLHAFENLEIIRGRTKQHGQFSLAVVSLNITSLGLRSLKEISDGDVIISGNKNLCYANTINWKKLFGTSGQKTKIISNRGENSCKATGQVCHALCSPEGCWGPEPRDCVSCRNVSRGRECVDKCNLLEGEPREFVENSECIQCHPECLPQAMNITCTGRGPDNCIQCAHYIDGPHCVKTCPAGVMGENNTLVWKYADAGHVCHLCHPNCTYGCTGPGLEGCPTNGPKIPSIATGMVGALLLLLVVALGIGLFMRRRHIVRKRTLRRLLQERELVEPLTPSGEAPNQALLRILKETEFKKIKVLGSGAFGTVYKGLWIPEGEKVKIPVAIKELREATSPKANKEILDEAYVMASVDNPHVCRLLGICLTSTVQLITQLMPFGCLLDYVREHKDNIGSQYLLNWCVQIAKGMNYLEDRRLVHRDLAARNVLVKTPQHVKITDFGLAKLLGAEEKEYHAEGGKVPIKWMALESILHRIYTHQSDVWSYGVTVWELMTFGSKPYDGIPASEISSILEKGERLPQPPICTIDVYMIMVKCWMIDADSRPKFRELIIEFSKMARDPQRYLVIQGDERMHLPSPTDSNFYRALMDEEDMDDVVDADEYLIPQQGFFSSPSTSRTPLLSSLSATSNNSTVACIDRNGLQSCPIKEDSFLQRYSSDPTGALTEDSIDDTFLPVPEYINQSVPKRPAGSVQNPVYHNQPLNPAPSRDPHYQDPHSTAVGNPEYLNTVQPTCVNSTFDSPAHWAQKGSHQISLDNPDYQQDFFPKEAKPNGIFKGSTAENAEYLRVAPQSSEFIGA
# PROCEDURE TEXT: Kinase inhibition, Mobility Shift Assay (EGFR)
# Assay type: biochemical
Here the recorded IC50 is given for each entry.

Worked examples follow.
O=C(NC1CC1)c1cccc(F)c1Sc1ccc2c(/C=C/c3cccc(CCCN4CCCC4)n3)n[nH]c2c1 6000 to 60000 nM
CCN(CC)Cc1ccc(/C=C/c2n[nH]c3cc(Sc4cc(F)ccc4C(=O)NC)ccc23)nc1 6000 to 60000 nM
O=C(NC1CC1)c1cc(F)ccc1Sc1ccc2c(/C=C/c3cnn(CCCN4CCCC4)c3)n[nH]c2c1 6000 to 60000 nM
CNC(=O)c1ccccc1Sc1ccc2c(/C=C/c3cccc(OCCN4CCCC4)c3)n[nH]c2c1 6000 to 60000 nM
O=C(NC1CC1)c1cc(F)ccc1Sc1ccc2c(/C=C/c3cc(CCCN4CCCC4)ccn3)n[nH]c2c1 > 60000 nM
CNC(=O)c1cc(F)ccc1Sc1ccc2c(/C=C/c3ccc(OCCN4CCCC4)cn3)n[nH]c2c1 6000 to 60000 nM

Asked: Give the reported value of IC50 for this record: CCNC(=O)c1cccc(F)c1Sc1ccc2c(/C=C/c3cc(CCCN4CCCC4)ccn3)n[nH]c2c1
Given back: > 60000 nM

Asked: Give the reported value of IC50 for this record: CNC(=O)c1ccccc1Sc1ccc2c(/C=C/c3ccc(OCCC4CCN(C)CC4)cn3)n[nH]c2c1
Given back: 6000 to 60000 nM

Asked: Give the reported value of IC50 for this record: CNC(=O)c1ccccc1Sc1ccc2c(/C=C/c3ccc(OCCN4CCCC4)cn3)n[nH]c2c1
Given back: 6000 to 60000 nM

Asked: Give the reported value of IC50 for this record: CNC(=O)c1ccccc1Sc1ccc2c(C#Cc3ccc(OCCN4CCCC4)cn3)n[nH]c2c1
Given back: 6000 to 60000 nM

Asked: Give the reported value of IC50 for this record: O=C(NC1CC1)c1cc(F)ccc1Sc1ccc2c(/C=C/c3cc(CN4CCCC4)ccn3)n[nH]c2c1
Given back: > 60000 nM

Asked: Give the reported value of IC50 for this record: O=C(NC1CC1)c1ccccc1Sc1ccc2c(/C=C/c3cccc(CN4CCCC4)n3)n[nH]c2c1
Given back: > 60000 nM

Asked: Give the reported value of IC50 for this record: CNC(=O)c1ccccc1Sc1ccc2c(/C=C/c3cccc(OCCN4CCCC4)n3)n[nH]c2c1
Given back: 6000 to 60000 nM

Asked: Give the reported value of IC50 for this record: CN(C)Cc1ccc(/C=C/c2n[nH]c3cc(Sc4ccccc4C(=O)NC4CC4)ccc23)nc1
Given back: 6000 to 60000 nM

Asked: Give the reported value of IC50 for this record: CNC(=O)c1ccccc1Sc1ccc2c(/C=C/c3ccc(OCCN4CCOCC4)cn3)n[nH]c2c1
Given back: 6000 to 60000 nM

Asked: Give the reported value of IC50 for this record: CCNC(=O)c1ccc(Sc2ccc3c(/C=C/c4ccc(CN(CC)CC)cn4)n[nH]c3c2)cc1F
Given back: > 60000 nM
